Please respond with reported GI50 for every item in the list.
system: 786-0 renal; experiment: NCI tumour cell line growth inhibition, 48 h

Short answer for COc1ccc(-c2[nH]ncc2Nc2cc(OC)c(OC)c(OC)c2)cc1 : GI50 was 6200 nM

Short answer for CSc1ccc(C(=O)/C=C/c2ccc(Cl)cc2Cl)cc1 : GI50 was 16900 nM

Short answer for CC12O[C@H](C[C@@H](OC(=O)CCC(=O)O)[C@H]1O)n1c3ccccc3c3c4c(c5c6ccccc6n2c5c31)C(=O)NC4=O : GI50 was 2140 nM

Short answer for O=C(Oc1c(Cl)cc(Cl)cc1Cl)c1ccccc1Nc1ccnc(C(F)(F)F)c1 : GI50 was 2950 nM

Short answer for C=C(C)C(=O)Nc1ccc(-c2c(-c3ccc(Oc4nccc(C)n4)c(F)c3)c3c(N)ncnc3n2C)cc1 : GI50 was 2430 nM
